- Test system: primary human mesenchymal stem cells (hMSCs)
- test_description: Induction of chondrogenesis in hMSCs (nodule area, Rhodamine B / Nile Red)
- Format: cell-based
- details: TGF-β3 as positive control, read-out: Max. Activity as % TGF-β3 activity
Doc: threshold 40% (exclusive). Items with Emax beneath it return TRUE; others return FALSE.

{"columns": ["molecule", "label_value"],
 "data": [
  ["Fc1cccc(-c2nccc3[nH]c(-c4n[nH]c5ccc(-c6cncc(CN7CCC(F)(F)C7)c6)nc45)nc23)c1 [Compound 26]", "FALSE"],
  ["Cc1ccc(-c2nccc3[nH]c(-c4n[nH]c5ccc(-c6cncc(NC(=O)C(C)C)c6)nc45)nc23)s1 [Compound 401]", "FALSE"],
  ["Cc1ncc(-c2ccc3[nH]nc(-c4nc5c(-c6cccc(F)c6)nccc5[nH]4)c3n2)s1 [Compound 1126]", "FALSE"],
  ["CC(C)CC(=O)Nc1cncc(-c2ccc3[nH]nc(-c4nc5c(-c6ccc(Cl)s6)nccc5[nH]4)c3n2)c1 [Compound 1037]", "FALSE"],
  ["CN(C)c1cncc(-c2ccc3[nH]nc(-c4nc5c(-c6cccc(F)c6)nccc5[nH]4)c3n2)c1 [Compound 7]", "FALSE"],
  ["Fc1cccc(-c2nccc3[nH]c(-c4n[nH]c5ccc(-c6cn[nH]c6)nc45)nc23)c1 [Compound 507]", "FALSE"],
  ["CN(C)Cc1cncc(-c2ccc3[nH]nc(-c4nc5c(-c6cccc(F)c6)nccc5[nH]4)c3n2)c1 [Compound 13]", "FALSE"],
  ["Cc1cn(-c2nccc3[nH]c(-c4n[nH]c5ccc(-c6cncc(NC(=O)C(C)(C)C)c6)nc45)nc23)cn1 [Compound 204]", "FALSE"],
  ["Cn1cc(-c2ccc3[nH]nc(-c4nc5c(-c6cccc(F)c6)nccc5[nH]4)c3n2)cn1 [Compound 508]", "FALSE"],
  ["CCNCc1cncc(-c2ccc3[nH]nc(-c4nc5c(-c6cc(F)cc(NCCN(C)C)c6)nccc5[nH]4)c3n2)c1 [Compound 454]", "TRUE"],
  ["CCNCc1cncc(-c2ccc3[nH]nc(-c4nc5c(-c6ccccn6)nccc5[nH]4)c3n2)c1 [Compound 146]", "TRUE"],
  ["Clc1ccc(-c2nccc3[nH]c(-c4n[nH]c5ccc(-c6cncc(CN7CCCC7)c6)nc45)nc23)s1 [Compound 1049]", "FALSE"],
  ["CCCCC(=O)Nc1cncc(-c2ccc3[nH]nc(-c4nc5c(-c6cc(F)cc(NCCN(C)C)c6)nccc5[nH]4)c3n2)c1 [Compound 467]", "FALSE"]
]}

Recorded values, source patent US10195185B2.
